This collection of values is drawn from paper PMC3608651.

// reported Bind A*02:01 for each item listed
# TGT: HLA-A*02:01 (Homo sapiens, UniProt P04439, D140Y/D185E/D98H/E176V/E277Q/G131W/G231S/I119V/I121R/I166T/I218V/L300P/L318F/N151K/N90K/P208A/P217A/Q86G/Q94H/R138H/R169H/T345S)
# Type: binding
# CONDITION LABEL: percent relative the binding of positive control peptide […]; plate-bound monomer 0.5 µg/ml; duplicated experiments; positive binder >40%
QUANTITY MEASURED: Bind A*02:01 (%)

SUBSTANCE | QUANTITY MEASURED | RECORDED NUMBER
NFPPNGTHS | Bind A*02:01 | 14
KFQDAYNAA | Bind A*02:01 | 19
LIGLAMGDA | Bind A*02:01 | 59
YNAAGGHNA | Bind A*02:01 | 16
QLNAMKGDL | Bind A*02:01 | 71
FIYAGSLSA | Bind A*02:01 | 79
KLVANNT RL | Bind A*02:01 | 81
DPSQGMGPS | Bind A*02:01 | 30
NLKFQDAYN | Bind A*02:01 | 8
ACGKAGCQT | Bind A*02:01 | 44
CGKAGCQT Y | Bind A*02:01 | 44
YHPQQFIYA | Bind A*02:01 | 49
VQFQSGGNN | Bind A*02:01 | 0
RLWVYCGNG | Bind A*02:01 | 45
AMGDAGGYK | Bind A*02:01 | 31
NFVRSSNLK | Bind A*02:01 | 3
AGSSAMILA | Bind A*02:01 | 56
VMPVGGQSS | Bind A*02:01 | 60
GQSSFYSDW | Bind A*02:01 | 27
GNNSPAVYL | Bind A*02:01 | 0
IVMPVGGQS | Bind A*02:01 | 44
RSSNLKFQD | Bind A*02:01 | 11
LAMGDAGGY | Bind A*02:01 | 10
QQFIYAGSL | Bind A*02:01 | 42
AEFLENFVR | Bind A*02:01 | 12
VFNFPPNGT | Bind A*02:01 | 34
IPKLVANNT | Bind A*02:01 | 0
LAAYHPQQF | Bind A*02:01 | 39
LVANNT RLW | Bind A*02:01 | 21
GGANIPAEF | Bind A*02:01 | 4
LKFQDAYNA | Bind A*02:01 | 17
MGRDIKVQF | Bind A*02:01 | 0
MLDHAGDMA [Rv0288_11–19m1] | Bind A*02:01 | 48
VYLLDGLRA | Bind A*02:01 | 86
SAMILAAYH | Bind A*02:01 | 9
AMLDHAGDM [Rv0288_10–18m2] | Bind A*02:01 | 47
SALLDPSQG | Bind A*02:01 | 0
FLTSELPQW | Bind A*02:01 | 75
RAQDDYNGW | Bind A*02:01 | 0
VYCGNGTPN | Bind A*02:01 | 0
NAMKGDLQS | Bind A*02:01 | 14
GLSMAGSSA | Bind A*02:01 | 75
DINTPAFEW | Bind A*02:01 | 0
GGNNSPAVY | Bind A*02:01 | 0
LSIVMPVGG | Bind A*02:01 | 33
SSNLKFQDA | Bind A*02:01 | 32
THSWEYWGA | Bind A*02:01 | 21
TSELPQW LS | Bind A*02:01 | 12
NGW DINTPA | Bind A*02:01 | 87
AVFNFPPNG | Bind A*02:01 | 69
AQLNAMKGD | Bind A*02:01 | 10
AYHPQQFIY | Bind A*02:01 | 13
GT HSWEYWG | Bind A*02:01 | 43
QIMYNYPTM [Rv0288_3–11m1] | Bind A*02:01 | 51
SFYSDW YSP | Bind A*02:01 | 7
GGYKAADMW | Bind A*02:01 | 0
VRSSNLKFQ | Bind A*02:01 | 5
QQIPKLVAN | Bind A*02:01 | 36
ALLDPSQGM | Bind A*02:01 | 60
MILAAYHPQ | Bind A*02:01 | 56
ETFLTSELP | Bind A*02:01 | 25
MW GPSSDPA | Bind A*02:01 | 6
AMKGDLQSS | Bind A*02:01 | 89
AGCQTYKW E | Bind A*02:01 | 12
LTSELPQW L | Bind A*02:01 | 56
NTPAFEWYY | Bind A*02:01 | 0
SNLKFQDAY | Bind A*02:01 | 11
AGGYKAADM | Bind A*02:01 | 0
ANNTRLWVY | Bind A*02:01 | 5
NNTRLW VYC | Bind A*02:01 | 0
QSGLSIVMP | Bind A*02:01 | 30
LDPSQGMGP | Bind A*02:01 | 41
PSQGMGPSL | Bind A*02:01 | 39
AVKPTGSAA | Bind A*02:01 | 10
NNSPAVYLL | Bind A*02:01 | 16
YYQSGLSIV | Bind A*02:01 | 98
NAVFNFPPN | Bind A*02:01 | 24
SPACGKAGC | Bind A*02:01 | 16
KGDLQSSLG | Bind A*02:01 | 10
